Sourced from paper PMC10397247

Hi there, I'd appreciate the recorded interaction score for every entry that follows.
- study_system: T1, 4H754-bA
- T1 chain: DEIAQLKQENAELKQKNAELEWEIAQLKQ
- experiment: two-hybrid library CCNG1;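 note: natural log of median RNA to DNA barcode read ratio; higher means stronger binding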
Answers are plain numbers.

| binder | interaction score |
| --- | --- |
| DKNAQLKQKIAELKQENAELEWKIAQLKQ [4H3926-bA] | -0.909 |
| DKIAQLKQEIAELEQEIAELKWKNAQLKQ [4H2576-bA] | -0.459 |
| DEIAQLEQKIAELKQENAELKWEIAQLKQ [4H346-bA] | -0.388 |

Note: attention shifts to another entry.
Input line: Which interaction score is listed for DKNAQLEQEIAELKQKNAELEWEIAQLEQ [4H3185-bA] ?
Output line: -0.86
